# TEST TARGET: Recombinant human JAK1 catalytic domain (Homo sapiens (Human))
# Sequence (P23458 875-1153): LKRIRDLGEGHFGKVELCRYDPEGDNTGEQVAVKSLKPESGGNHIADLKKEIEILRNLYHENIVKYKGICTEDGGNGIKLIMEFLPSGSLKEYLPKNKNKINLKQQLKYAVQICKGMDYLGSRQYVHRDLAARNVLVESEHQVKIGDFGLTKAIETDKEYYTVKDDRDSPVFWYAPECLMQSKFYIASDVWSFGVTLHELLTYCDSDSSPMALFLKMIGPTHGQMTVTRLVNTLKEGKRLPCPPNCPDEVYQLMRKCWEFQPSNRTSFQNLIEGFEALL
# PROCEDURE DETAILS: JAK1 kinase assay (Z'-LYTE Tyr 6 Peptide)
# Format: biochemical
# EXPERIMENTAL CONTEXT: JAK1 kinase assay, 0.3 uM concentration; read-out: inhibition percentage (IR %)

| COMPOUND | TEST TARGET | inhibition at 0.3 µM |
| --- | --- | --- |
| CN(CCC#N)[C@@H]1CCN(c2ncnc3[nH]ccc23)C1 [Compound 64] | Recombinant human JAK1 catalytic domain (Homo sapiens (Human)) | 50 to 100% |
| CN([C@@H]1CCN(c2ncnc3[nH]ccc23)C1)S(=O)(=O)c1ccc(C#N)cc1 [Compound 9] | Recombinant human JAK1 catalytic domain (Homo sapiens (Human)) | 20 to 50% |
| N#Cc1ccc2c(c1)CCN2C1CCN(c2ncnc3[nH]ccc23)C1 (stereo not shown) [Compound 46] | Recombinant human JAK1 catalytic domain (Homo sapiens (Human)) | 50 to 100% |
| Cc1ccc(NC(=O)c2ccc(N(C)[C@@H]3CCN(c4ncnc5[nH]ccc45)C3)nc2)cc1 [Compound 186] | Recombinant human JAK1 catalytic domain (Homo sapiens (Human)) | 50 to 100% |
| CN(c1ncc(Br)cc1C#N)[C@@H]1CCN(c2ncnc3[nH]ccc23)C1 [Compound 89] | Recombinant human JAK1 catalytic domain (Homo sapiens (Human)) | 50 to 100% |
| CN(c1ccc(NS(=O)(=O)Cc2ccc(Cl)cc2)cn1)[C@@H]1CCN(c2ncnc3[nH]ccc23)C1 [Compound 225] | Recombinant human JAK1 catalytic domain (Homo sapiens (Human)) | 50 to 100% |
| CN(c1ccc(C(N)=O)cn1)[C@@H]1CCN(c2ncnc3[nH]ccc23)C1 [Compound 169] | Recombinant human JAK1 catalytic domain (Homo sapiens (Human)) | 20 to 50% |
| CN(c1ccc(C(=O)N[C@@H]2c3ccccc3C[C@H]2O)cc1F)[C@@H]1CCN(c2ncnc3[nH]ccc23)C1 [Compound 206] | Recombinant human JAK1 catalytic domain (Homo sapiens (Human)) | 50 to 100% |
| CN(c1ccc(C(=O)N[C@@H]2CCC[C@H]2O)cn1)[C@@H]1CCN(c2ncnc3[nH]ccc23)C1 [Compound 194] | Recombinant human JAK1 catalytic domain (Homo sapiens (Human)) | 20 to 50% |
| CN(C(=O)c1ccc(N(C)[C@@H]2CCN(c3ncnc4[nH]ccc34)C2)nc1)c1ccc(F)cc1 [Compound 178] | Recombinant human JAK1 catalytic domain (Homo sapiens (Human)) | 50 to 100% |
| CN(c1ccc(NS(=O)(=O)Cc2ccc(F)cc2)cn1)[C@@H]1CCN(c2ncnc3[nH]ccc23)C1 [Compound 221] | Recombinant human JAK1 catalytic domain (Homo sapiens (Human)) | 20 to 50% |
| CN(c1ncnc2ccccc12)[C@@H]1CCN(c2ncnc3[nH]ccc23)C1 [Compound 80] | Recombinant human JAK1 catalytic domain (Homo sapiens (Human)) | 50 to 100% |
| CN(c1ccc(S(=O)(=O)NC(C)(C)C)cn1)[C@@H]1CCN(c2ncnc3[nH]ccc23)C1 [Compound 238] | Recombinant human JAK1 catalytic domain (Homo sapiens (Human)) | 50 to 100% |
| CN(c1nc(Cl)c(C#N)cc1F)[C@@H]1CCN(c2ncnc3[nH]ccc23)C1 [Compound 87] | Recombinant human JAK1 catalytic domain (Homo sapiens (Human)) | 50 to 100% |
| CN(c1ccc(C(=O)Nc2cccnc2)cn1)[C@@H]1CCN(c2ncnc3[nH]ccc23)C1 [Compound 198] | Recombinant human JAK1 catalytic domain (Homo sapiens (Human)) | 20 to 50% |
| CN(c1ccc(C#N)cn1)[C@@H]1CCN(c2ncnc3[nH]ccc23)C1 [Compound 71] | Recombinant human JAK1 catalytic domain (Homo sapiens (Human)) | 50 to 100% |
